- assay_comment: Pharmacokinetic study in vivo
- condition: both, Sprague-Dawley, rat, in vivo, po, 50 mg/kg
quantity: AUC(0-inf)

Which AUC(0-inf) is listed for CCC(=O)N1CCCN(C(=O)C2CCCN(Cc3ccc(NC(=O)N[C@@]45C[C@@H]6C[C@@](C)(C[C@@](C)(C6)C4)C5)c(F)c3)C2)CC1 (stereo partly shown) ?
0.0102 µM·h
